- Tested on: gastric cancer BGC-823 cells
- ASSAY EXPLANATION: Inhibition of gastric cancer cell BGC-823 in vitro by MTT method
- Type: cell-based
- TEST CONTEXT: Homo sapiens; BGC-823, MTT, 72 hours, FIG. 4; read-out: IC50, in vitro inhibition on cell line BGC-823 of gastric cancer
ENDPOINT LABEL: IC50

1. CC(C)=CCc1c(O)cc(O)c2c(=O)c(O)c(-c3ccc(C(F)(F)F)cc3)oc12 [Compound 1]; 1 to 4 µM

----------
- Tested on: MDA-MB-231 cells
- ASSAY EXPLANATION: CellTiter-Glo Luminescent Cell Viability Assay on ER-negative breast cancer MDA-MB-231 cells in vitro
- Type: cell-based
- TEST CONTEXT: Homo sapiens, 72 hours, read-out: Inhibition of viability of breast cancer cells IC50, MDA-MB-231 cells
Recorded IC50 by entry
ENDPOINT LABEL: IC50

1. CC(C)=CCc1c(O)cc(O)c2c(=O)c(O)c(-c3ccc(Cl)cc3)oc12; 4.33 µM
2. CC(C)=CCc1c(O)cc(O)c2c(=O)c(O)c(-c3ccc(Cl)c(C(F)(F)F)c3)oc12; 9.3 µM
3. CC(C)=CCc1c(O)cc(O)c2c(=O)c(O)c(-c3ccc(Cl)c(Cl)c3)oc12; 1.88 µM
4. CC(C)=CCc1c(O)cc(O)c2c(=O)c(O)c(-c3ccc(OC(F)(F)F)cc3)oc12; 4.48 µM

----------
- Test system: MCF7 cells
- ASSAY EXPLANATION: CellTiter-Glo Luminescent Cell Viability Assay on ER-positive breast cancer MCF-7 cells in vitro
- Type: cell-based
- TEST CONTEXT: Homo sapiens, 72 hours, read-out: Inhibition of viability of breast cancer cells IC50, MCF7 cells
ENDPOINT LABEL: log10(IC50) (log10 of the value in µM)

1) CC(C)=CCc1c(O)cc(O)c2c(=O)c(O)c(-c3ccc(C(F)(F)F)cc3)oc12 [Compound 1]; 0.30
2) CC(C)=CCc1c(O)cc(O)c2c(=O)c(O)c(-c3ccc(F)cc3)oc12 [Compound 2]; 0.50
3) COc1c(-c2ccc(F)c(F)c2)oc2c(CC=C(C)C)c(O)cc(O)c2c1=O [Compound 10]; 1.50
4) CC(C)=CCc1c(O)cc(O)c2c(=O)c(O)c(-c3ccc(Cl)c(F)c3)oc12 [Compound 3]; 0.93
5) CC(C)=CCc1c(O)cc(O)c2c(=O)c(O)c(-c3ccc(Cl)c(Cl)c3)oc12 [Compound 6]; 0.84
6) CC(C)=CCc1c(O)cc(O)c2c(=O)c(O)c(-c3ccc(Cl)cc3)oc12 [Compound 4]; 1.20
7) CC(C)=CCc1c(O)cc(O)c2c(=O)c(O)c(-c3ccc(Cl)c(C(F)(F)F)c3)oc12 [Compound 7]; 0.88
8) CC(C)=CCc1c(O)cc(O)c2c(=O)c(O)c(-c3ccc(OC(F)(F)F)cc3)oc12 [Compound 5]; 0.84

----------
- Tested on: MDA-MB-231 cells
- ASSAY EXPLANATION: CellTiter-Glo Luminescent Cell Viability Assay on ER-negative breast cancer MDA-MB-231 cells in vitro
- Format: cell-based
- TEST CONTEXT: Homo sapiens, 72 hours, read-out: Inhibition of viability of breast cancer cells IC50, MDA-MB-231 cells
ENDPOINT LABEL: IC50 (nM)

1. CC(C)=CCc1c(O)cc(O)c2c(=O)c(O)c(-c3ccc(C(F)(F)F)cc3)oc12; 1070
2. CC(C)=CCc1c(O)cc(O)c2c(=O)c(O)c(-c3ccc(Cl)c(F)c3)oc12; 2870

The measurements presented in this section are drawn from patent US9221781B2.
